Item-by-item account of log10 of MIC90
Tested on: Clostridium perfringens
Experiment: Antimicrobial activity against Clostridium perfringens by agar dilution method
Format: functional
parameter.measured: log10 of MIC90 (log10 of the value in µg/mL)

{"columns": ["molecule", "log10 of MIC90"],
 "data": [
  ["CCC[C@@H]1C[C@@H](C(=O)N[C@@H]([C@H]2O[C@H](SC)[C@H](O)[C@@H](O)[C@H]2O)[C@H](C)Cl)N(C)C1", 0.30],
  ["CC(=O)NC[C@H]1CN(c2ccc(N3CCOCC3)c(F)c2)C(=O)O1", 0.60],
  ["CN[C@H](CC(C)C)C(=O)N[C@H]1C(=O)N[C@@H](CC(N)=O)C(=O)N[C@H]2C(=O)N[C@H]3C(=O)N[C@H](C(=O)N[C@H](C(=O)O)c4cc(O)cc(O)c4-c4cc3ccc4O)[C@H](O)c3ccc(c(Cl)c3)Oc3cc2cc(c3O[C@@H]2O[C@H](CO)[C@@H](O)[C@H](O)[C@H]2O[C@H]2C[C@](C)(N)[C@H](O)[C@H](C)O2)Oc2ccc(cc2Cl)[C@H]1O", 0.30],
  ["Cc1ncc([N+](=O)[O-])n1CCO", 0.60],
  ["CO[C@@]1(NC(=O)Cc2cccs2)C(=O)N2C(C(=O)O)=C(COC(N)=O)CS[C@@H]21", 0.60],
  ["C[C@@H](O)[C@H]1C(=O)N2C(C(=O)O)=C(S[C@@H]3CN[C@H](C(=O)Nc4cccc(C(=O)O)c4)C3)[C@H](C)[C@H]12", -0.60],
  ["C[C@@H](O)[C@H]1C(=O)N2C(C(=O)O)=C(SCCNC=N)C[C@H]12 [IMIPENEM ANHYDROUS]", -0.30],
  ["C[C@@H](O)[C@H]1C(=O)N2C(C(=O)O)=C(S[C@@H]3CN[C@H](C(=O)N(C)C)C3)[C@H](C)[C@H]12", -0.90],
  ["C[C@@H](O)[C@H]1C(=O)N2C(C(=O)O)=C(S[C@@H]3CN[C@H](CNS(N)(=O)=O)C3)[C@H](C)[C@H]12", -0.90]
]}
